ASSAY TARGET: Gastrin receptor (gastric glands) (Cavia porcellus)
Construct: The washed guinea pig gastric glands prepared as above were resuspended; from tissue; host or cells: guinea pig gastric mucosal glands (male Hartley)
Sequence (H0VZC5 1-426): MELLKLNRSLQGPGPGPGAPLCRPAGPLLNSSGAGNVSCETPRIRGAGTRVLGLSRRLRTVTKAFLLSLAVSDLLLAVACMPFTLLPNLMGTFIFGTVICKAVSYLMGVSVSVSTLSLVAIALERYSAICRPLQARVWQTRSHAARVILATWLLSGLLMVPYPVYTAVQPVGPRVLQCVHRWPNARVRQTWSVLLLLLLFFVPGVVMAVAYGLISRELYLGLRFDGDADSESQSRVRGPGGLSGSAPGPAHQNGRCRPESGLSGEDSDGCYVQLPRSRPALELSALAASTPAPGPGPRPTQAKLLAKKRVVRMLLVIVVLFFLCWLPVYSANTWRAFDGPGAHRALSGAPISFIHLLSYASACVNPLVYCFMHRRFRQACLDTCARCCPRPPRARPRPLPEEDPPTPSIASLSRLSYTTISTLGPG
MEASUREMENT DESCRIPTION: Gastrin Receptor Binding in Guinea Pig Gastric Glands
Set-up: species or system guinea pig (male Hartley)
STUDY CONDITIONS: ^125 I-gastrin, 25° C., 30 minutes, read-out: IC50 ^125 I-Gastrin Gastric Glands
MEASURED PARAMETER: pIC50
Please note pIC50 is a logarithmic value: minus log10 of concentration in mol/L. Answer with that number alone.

Item: CCCCNC(=O)CN1C(=O)C(NC(=O)OCc2ccccc2)N=C(c2ccccc2)c2ccccc21 (stereo not shown) [Example 213] | pIC50: 6.55

Item: O=C1Nc2ccccc2C(c2ccccc2F)=N[C@@H]1CC1CNc2ccccc21 (stereo partly shown) [Example 10] | pIC50: 4.33

Item: CN1C(=O)[C@@H](NC(=O)c2ccc(Br)cc2)N=C(c2ccccc2F)c2ccccc21 [Example 156] | pIC50: 6.17

Item: CN1C(=O)C(NC(=O)NCc2ccccc2)N=C(c2ccccc2)c2ccccc21 (stereo not shown) [Example 251] | pIC50: 6.38

Item: CCOC(=O)C(C)N1C(=O)C(NC(=O)OCc2ccccc2)N=C(c2ccccc2)c2ccccc21 (stereo not shown) [Example 242] | pIC50: 6.06

Item: CN1C(=O)[C@H](NC(=O)c2cccc(I)c2)N=C(c2ccccc2F)c2ccccc21 [Example 168] | pIC50: 5.70

Item: CCN(CC)C(=O)CN1C(=O)C(NC(=O)OCc2ccccc2)N=C(c2ccccc2)c2ccccc21 (stereo not shown) [Example 222] | pIC50: 6.64

Item: CCNC(=O)CN1C(=O)C(NC(=O)OCc2ccccc2)N=C(c2ccccc2)c2ccccc21 (stereo not shown) [Example 215] | pIC50: 6.25

Item: CN1C(=O)C(NC(=O)c2ccc(Br)cc2)N=C(c2ccccc2)c2ccccc21 (stereo not shown) [Example 216] | pIC50: 5.77
